tested on: rodent lifetime carcinogenesis bioassay, tumor incidence TD50; experiment: carcinogenic potency in animals, long-term in vivo studies, CPDB compilation (AID 1745844); details: rat; strain MRC-Wistar; males; in drinking water; site: bone; lesion: osteosarcoma; dosed 39 weeks; study length 85 weeks
metric: TD50

# return TD50 of NC(=O)N(CCO)N=O (system: rodent lifetime carcinogenesis bioassay, tumor incidence TD50) 1.56 mg/kg/day

---

tested on: rodent lifetime carcinogenesis bioassay, tumor incidence TD50; assay: carcinogenic potency in animals, long-term in vivo studies, CPDB compilation (AID 1745844); conditions: rat; strain BD IX; both sexes; by gavage; site: forestomach; lesion: squamous-cell carcinoma; dosed 41 weeks; study length 52 weeks
metric: TD50

Answer with TD50 of CN(N=O)C(=O)c1c(N(C)N=O)ncn1C measured for rodent lifetime carcinogenesis bioassay, tumor incidence TD50. 0.183 mg/kg/day

---

test system: rodent lifetime carcinogenesis bioassay, tumor incidence TD50; experiment: carcinogenic potency in animals, long-term in vivo studies, CPDB compilation (AID 1745844); details: rat; strain Fischer 344; males; by gavage; site: liver; lesion: several types; types named in the paper; dosed 121 weeks; study length 121 weeks
metric: TD50

State, in one line, measured TD50 of Cc1ccc(S(=O)(=O)OCCN(C)N=O)cc1 7.79 mg/kg/day

---

system: rodent lifetime carcinogenesis bioassay, tumor incidence TD50; test: carcinogenic potency in animals, long-term in vivo studies, CPDB compilation (AID 1745844); conditions: rat; strain Fischer 344; males; in feed; site: stomach; lesion: squamous-cell carcinoma + squamous-cell papilloma; dosed 78 weeks; study length 105 weeks
# maps each entry to its TD50

{"columns": ["entry-smiles", "metric", "value-reported"],
 "data": [
  ["[O-]/[N+](=N\\O)c1ccccc1", "TD50", "6.28 mg/kg/day"]
]}

Now consider the entry below.
Enter recorded TD50 with rodent lifetime carcinogenesis bioassay, tumor incidence TD50 for Nc1ccc(Cl)cc1N here. 2500 mg/kg/day

---

system: rodent lifetime carcinogenesis bioassay, tumor incidence TD50; test: carcinogenic potency in animals, long-term in vivo studies, CPDB compilation (AID 1745844); conditions: mouse; strain DDD; females; in drinking water; site: liver; lesion: hepatocellular adenoma; dosed 52 weeks; study length 52 weeks
metric: TD50 (mg/kg/day)
Kindly answer with a numeric value in mg/kg/day, unit omitted.

Let me know recorded TD50 for NC(=O)Cc1c([O-])on[n+]1Cc1ccccc1 , thanks. 10.2

---

test system: rodent lifetime carcinogenesis bioassay, tumor incidence TD50; assay: carcinogenic potency in animals, long-term in vivo studies, CPDB compilation (AID 1745844); conditions: mouse; strain B6C3F1; females; in feed; site: any site (literature study); lesion: several types; types named in the paper; dosed 78 weeks; study length 103 weeks
Calls of active or inactive are those of the source. The rule behind the calls is not given here.
metric: TD50

{"columns": ["entry-smiles", "system-name", "TD50"],
 "data": [
  ["CCCCNC(=O)NS(=O)(=O)c1ccc(C)cc1", "rodent lifetime carcinogenesis bioassay, tumor incidence TD50", "24200 mg/kg/day (inactive)"]
]}

For the next question, use this compound.
# return recorded TD50 for input COc1cc(-c2ccc(N=C=O)c(OC)c2)ccc1N=C=O 32800 mg/kg/day (inactive)

---

test system: rodent lifetime carcinogenesis bioassay, tumor incidence TD50; assay: carcinogenic potency in animals, long-term in vivo studies, CPDB compilation (AID 1745844); details: mouse; strain ICR; females; in feed; site: liver; lesion: several types; types named in the paper; dosed 106 weeks; study length 106 weeks
metric: TD50
Give your result as the value with the unit written after it.

Answer with the recorded TD50 for the compound listed here: ClC1=C(Cl)C2(Cl)C3C(Cl)C(Cl)CC3C1(Cl)C2(Cl)Cl (stereo unspecified) 13.4 mg/kg/day
